target: neuraminidase of A(H1N1) clinical isolate 0650/04 (Influenza A virus (H1N1))
experiment-summary: biochemical
measured-parameter: Ki (nM)
Write the number in nM without appending the unit.

response.value for CC(=O)N[C@H]1[C@H]([C@H](O)[C@H](O)CO)OC(C(=O)O)=C[C@@H]1N=C(N)N [Zana, zanamivir] (field: Ki) = 0.2

Sample CCOC(=O)C1=C[C@@H](OC(CC)CC)[C@H](NC(C)=O)[C@@H](N)C1 [OC, oseltamivir] ; Ki observed: 0.2

---

target: neuraminidase of A/New Caledonia/20/99(H1N1) (NC99) (Influenza A virus, UniProt Q7TG96)
experiment-summary: biochemical
measured-parameter: Ki
Answer format: number, then unit.

Param item: CCOC(=O)C1=C[C@@H](OC(CC)CC)[C@H](NC(C)=O)[C@@H](N)C1 [OC, oseltamivir] ; param system: neuraminidase of A/New Caledonia/20/99(H1N1) (NC99) (Influenza A virus, UniProt Q7TG96); output Ki: 0.19 nM
